Reference source for all entries: patent US20100022542A1

# tested_on: human TPO receptor (hTPOR) (Homo sapiens, UniProt P40238)
# Sequence (P40238 26-635): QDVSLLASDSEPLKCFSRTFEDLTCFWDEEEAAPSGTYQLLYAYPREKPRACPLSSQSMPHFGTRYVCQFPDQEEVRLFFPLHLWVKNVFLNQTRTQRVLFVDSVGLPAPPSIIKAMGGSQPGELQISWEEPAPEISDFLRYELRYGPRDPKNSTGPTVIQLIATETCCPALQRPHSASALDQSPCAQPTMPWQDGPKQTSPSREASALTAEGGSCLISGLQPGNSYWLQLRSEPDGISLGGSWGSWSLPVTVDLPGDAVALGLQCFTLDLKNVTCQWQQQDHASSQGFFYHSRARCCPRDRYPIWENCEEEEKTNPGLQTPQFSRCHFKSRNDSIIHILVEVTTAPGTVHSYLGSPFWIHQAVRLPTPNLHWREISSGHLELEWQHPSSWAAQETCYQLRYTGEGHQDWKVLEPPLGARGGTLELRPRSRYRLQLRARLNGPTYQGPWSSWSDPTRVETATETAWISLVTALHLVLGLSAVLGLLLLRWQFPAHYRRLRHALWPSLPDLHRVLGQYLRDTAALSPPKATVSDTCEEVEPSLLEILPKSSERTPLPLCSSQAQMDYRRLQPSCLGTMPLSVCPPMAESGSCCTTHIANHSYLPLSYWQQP
# procedure_text: Proliferation of TPO dependent BaF/hTPOR cells, WST-1, thrombopoietic activity ED50 (Test Example 3)
# recorded_conditions: 20 h incubation then WST-1 4 h, absorbance at 450 nm
pEC50: −log10 of the molar value.
observable: pEC50

// solved cases for pEC50 follow
| molecule | pEC50 |
| --- | --- |
| C/C(=C\c1ccc(C(=O)Nc2nc(-c3ccc(F)cc3)cs2)cc1)C(=O)O | 6.54 |
| O=C(O)/C(Cl)=C/c1ccc(C(=O)Nc2nc(-c3ccc(F)cc3)cs2)cc1 | 6.61 |
| CCOC(=O)/C(Cl)=C/c1ccc(C(=O)Nc2nc(-c3ccc(C(F)(F)F)cc3)cs2)cc1 | 7.36 |
| CC(c1ccc(C(=O)Nc2nc(-c3ccc(Cl)c(Cl)c3)cs2)cc1)C(Cl)C(=O)O (stereo not shown) | 6.44 |
| CC(=Cc1ccc(C(=O)Nc2nc(-c3ccc(Cl)c(Cl)c3)cs2)cc1)S(N)(=O)=O | 6.70 |
| CC(C)(C)c1ccc(-c2csc(NC(=O)c3ccc(/C=C(\Cl)C(=O)O)cc3)n2)cc1 | 6.33 |
| O=C(O)/C(Cl)=C/c1ccc(C(=O)Nc2nc(-c3ccc(Cl)c(Cl)c3)cs2)cc1 | 7.77 |
| O=C(O)/C(Cl)=C/c1ccc(C(=O)Nc2nc(-c3cccc(Br)c3F)cs2)cc1 | 7.15 |
| CCOC(=O)/C(C)=C/c1ccc(C(=O)Nc2nc(-c3cccc(C(F)(F)F)c3)cs2)cc1 | 6.71 |
| COc1ccc(-c2csc(NC(=O)c3ccc(/C=C(\Cl)C(=O)O)cc3)n2)c(F)c1 | 6.68 |

(1) CC(=Cc1ccc(C(=O)Nc2nc(-c3ccc(F)c(F)c3)cs2)cc1)C(=O)O
(2) O=C(O)/C(Cl)=C/c1ccc(C(=O)Nc2nc(-c3cccc(-c4ccccc4)c3)cs2)cc1
(3) CCOC(=O)/C(Cl)=C/c1ccc(C(=O)Nc2nc(-c3cccc(C(F)(F)F)c3)cs2)cc1
Task: List the 3 entries from lowest pEC50 to highest pEC50 value. A ranking is expressed here by listing the labels in the requested order.
Result: 1, 2, 3
(1: 6.44, 2: 7.19, 3: 7.41)
